test: AUC (0 to infinity) in anesthetized C57/BL6 mouse at 5 mg/kg, iv co-administered with amino-benzotriazole by LC-MS method; assay type: ADME, organism-based; parameters: dose 5 mg/kg, route intravenous, time infinity; conditions: in vivo
Quantity Measured: AUC(0-inf)
Write down the value, and be sure its unit follows.

Which value of AUC(0-inf) has been reported for `Cc1noc(-c2nc(C)c3c(c2N)C(=O)N(Cc2cccc(Cl)c2)C3=O)n1` in the records?
2.65 µM·h

----------
assay: Tmax in C57/BL6 mouse at 20 mg/kg, po co-administered with amino-benzotriazole by LC-MS method; type: ADME, organism-based; settings: in vivo
Quantity Measured: Tmax (min)
Answers are plain numbers, in min.

What value of measured Tmax is listed for `Cc1noc(-c2nc(C)c3c(c2N)C(=O)N(Cc2cccc(Cl)c2)C3=O)n1` ?
30

----------
test: Volume of distribution in anesthetized C57/BL6 mouse at 5 mg/kg, iv co-administered with amino-benzotriazole by LC-MS method; assay type: ADME, organism-based; settings: in vivo
Quantity Measured: Vd (L/kg)
One number for each entry, in L/kg.

Which measured Vd value corresponds to `Cc1noc(-c2nc(C)c3c(c2N)C(=O)N(Cc2cccc(Cl)c2)C3=O)n1` ?
53.1

----------
test: Cmax in C57/BL6 mouse at 20 mg/kg, po co-administered with amino-benzotriazole by LC-MS method; assay type: ADME, organism-based; design: dose 20 mg/kg, route oral; conditions: in vivo
Quantity Measured: Cmax (nM)
One number for each entry, in nM.

Cmax lookup needed for `Cc1noc(-c2nc(C)c3c(c2N)C(=O)N(Cc2cccc(Cl)c2)C3=O)n1` , thanks.
167

----------
test: Kinetic solubility in FaSSIF at pH 6.5 after 2 hours at 25 degC by shake flask method; type: physicochemical; settings: read-out: Kinetic_solubility
I'd appreciate it if you could supply solubility kinetic at 2 h values for the items below.
One number for each entry, in µM.

Example entries and their recorded answers appear below.
Cc1noc(-c2nc(C)c3c(c2N)C(=O)N(C(C)c2ccccc2)C3=O)n1 (stereo not given) ... 10.9
Cc1nc(C(=O)OC2CC2)c(N)c2c1C(=O)N(Cc1ccccc1)C2=O ... 202

Consider the record given below.
Reported solubility kinetic at 2 h, molecule `Cc1noc(-c2nc(C)c3c(c2N)C(=O)N(Cc2ccncc2)C3=O)n1` : ____
26.4

----------
experiment: Tmax in anesthetized C57/BL6 mouse at 5 mg/kg, iv co-administered with amino-benzotriazole by LC-MS method; assay type: ADME, organism-based; conditions: in vivo
Quantity Measured: Tmax (min)
Give bare numbers, in min.

May I ask what Tmax has been recorded for `Cc1noc(-c2nc(C)c3c(c2N)C(=O)N(Cc2cccc(Cl)c2)C3=O)n1` ?
10.2

----------
experiment: Apparent half-life in C57/BL6 mouse at 20 mg/kg, po co-administered with amino-benzotriazole by LC-MS method; type: ADME, organism-based; conditions: in vivo, read-out: t1/2(app) (converted)
Quantity Measured: half-life (h)
Answers are plain numbers, in h.

Using the record for `Cc1noc(-c2nc(C)c3c(c2N)C(=O)N(Cc2cccc(Cl)c2)C3=O)n1` , report its half-life.
3.39

----------
test system: Mycobacterium tuberculosis; assay: Antimicrobial activity against Mycobacterium tuberculosis H37RvMA under GAST/Fe medium assessed as growth inhibition after 14 days by alamar blue assay; format: functional; settings: 336 h
Quantity Measured: MIC90 (µM)
Answers are plain numbers, in µM.

Cc1nc(C(=O)O)c(N)c2c1C(=O)N(Cc1ccccc1)C2=O ... 3.13

Kindly consider the entry below.
Give MIC90 (Mycobacterium tuberculosis) of the following compound: `COC(=O)c1nc(C)c2c(c1N)C(=O)N(Cc1ccccc1)C2=O`
0.15

meta.source: ChEMBL document CHEMBL3734652
